GC-HS area (% of control sample) Limonene: recorded values
# PROCEDURE_SUMMARY: GC-head space: effect of enablers on the encapsulation of menthol and limonene combination by PVP
# Format: physicochemical
# CONDITION_LABEL: menthol + limonene with PVP; enabler 0.05%

• CC(C)=O [Acetone] = 88.91 % of control sample
• CC(=O)O [Acetic acid] = 91.77 % of control sample
• Oc1cc(Cl)ccc1Oc1ccc(Cl)cc1Cl [Triclosan] = 95.29 % of control sample

Could you now consider this next compound?
Per the record, Cc1cc(C(C)(C)C)c(O)c(C(C)(C)C)c1 [BHT, Butylated hydroxy toluene] has GC-HS area (% of control sample) Limonene of 108.95 % of control sample

====

# PROCEDURE_SUMMARY: GC-head space: effect of enablers on the encapsulation of menthol by PVP
# Format: physicochemical
# CONDITION_LABEL: enabler concentration 0.1%; with PVP
GC-HS area Menthol: recorded values
Enter the number alone.

The cases that follow already have their GC-HS area Menthol on record.
* CC(C)=O | 179
* CC(=O)O | 1030
* Cc1cc(C(C)(C)C)c(O)c(C(C)(C)C)c1 [BHT, Butylated hydroxy toluene] | 10773

Could you now consider this next molecule?
Per the record, "Oc1cc(Cl)ccc1Oc1ccc(Cl)cc1Cl" has GC-HS area Menthol of 3482

====

# PROCEDURE_SUMMARY: GC-head space: effect of enablers on the encapsulation of menthol and limonene combination by PVP
# Type: physicochemical
# CONDITION_LABEL: menthol + limonene with PVP; enabler 0.5%
OUTCOME_MEASURE: GC-HS area (% of control sample) Limonene

The cases that follow already have their GC-HS area (% of control sample) Limonene on record.
- CC(C)=O: 106.24 % of control sample
- CC(=O)O: 97.95 % of control sample

Per the record, Cc1cc(C(C)(C)C)c(O)c(C(C)(C)C)c1 [BHT, Butylated hydroxy toluene] has GC-HS area (% of control sample) Limonene of 108.30 % of control sample

Per the record, "Oc1cc(Cl)ccc1Oc1ccc(Cl)cc1Cl" has GC-HS area (% of control sample) Limonene of 105.82 % of control sample

====

GC-HS area Limonene: recorded values
# PROCEDURE_SUMMARY: GC-head space: effect of enablers on the encapsulation of menthol and limonene combination by PVP
# Type: physicochemical
# CONDITION_LABEL: menthol + limonene with PVP; enabler 0.1%
Enter the number alone.

The cases that follow already have their GC-HS area Limonene on record.
• CC(C)=O = 1886916
• Oc1cc(Cl)ccc1Oc1ccc(Cl)cc1Cl = 1916012
• Cc1cc(C(C)(C)C)c(O)c(C(C)(C)C)c1 [BHT, Butylated hydroxy toluene] = 1866057

Could you now consider this next molecule?
Per the record, "CC(=O)O" has GC-HS area Limonene of 2096101

====

# PROCEDURE_SUMMARY: GC-head space: effect of enablers on the encapsulation of menthol by PVP
# Format: physicochemical
# CONDITION_LABEL: menthol; enabler 0.1%; control without PVP
GC-HS area (% of control sample): recorded values

- CC(C)=O: 0.24 % of control sample

Per the record, "Oc1cc(Cl)ccc1Oc1ccc(Cl)cc1Cl" has GC-HS area (% of control sample) of 4.64 % of control sample

Per the record, "CC(=O)O" has GC-HS area (% of control sample) of 1.37 % of control sample

Per the record, Cc1cc(C(C)(C)C)c(O)c(C(C)(C)C)c1 [BHT, Butylated hydroxy toluene] has GC-HS area (% of control sample) of 14.36 % of control sample

====

# PROCEDURE_SUMMARY: GC-head space: effect of enablers on the encapsulation of menthol and limonene combination by PVP
# Assay type: physicochemical
# CONDITION_LABEL: menthol + limonene with PVP; enabler 0.1%
OUTCOME_MEASURE: GC-HS area (% of control sample) Limonene

- Oc1cc(Cl)ccc1Oc1ccc(Cl)cc1Cl: 99.50 % of control sample
- CC(=O)O: 112.66 % of control sample
- Cc1cc(C(C)(C)C)c(O)c(C(C)(C)C)c1 [BHT, Butylated hydroxy toluene]: 102.91 % of control sample

Could you now consider this next compound?
Per the record, "CC(C)=O" has GC-HS area (% of control sample) Limonene of 103.37 % of control sample

====

GC-HS area Limonene: recorded values
# PROCEDURE_SUMMARY: GC-head space: effect of enablers on the encapsulation of menthol and limonene combination by PVP
# Type: physicochemical
# CONDITION_LABEL: menthol + limonene with PVP; enabler 0.05%
Enter the number alone.

* CC(=O)O | 1860568
* Cc1cc(C(C)(C)C)c(O)c(C(C)(C)C)c1 [BHT, Butylated hydroxy toluene] | 1813235
* CC(C)=O | 1825472

Per the record, "Oc1cc(Cl)ccc1Oc1ccc(Cl)cc1Cl" has GC-HS area Limonene of 1925700

====

GC-HS area (% of control sample) Menthol: recorded values
# PROCEDURE_SUMMARY: GC-head space: effect of enablers on the encapsulation of menthol and limonene combination by PVP
# Type: physicochemical
# CONDITION_LABEL: menthol + limonene with PVP; enabler 0.5%

The cases that follow already have their GC-HS area (% of control sample) Menthol on record.
• Oc1cc(Cl)ccc1Oc1ccc(Cl)cc1Cl = 3.98 % of control sample
• CC(=O)O = 1.89 % of control sample
• Cc1cc(C(C)(C)C)c(O)c(C(C)(C)C)c1 [BHT, Butylated hydroxy toluene] = 58.28 % of control sample

Could you now consider this next molecule?
Per the record, "CC(C)=O" has GC-HS area (% of control sample) Menthol of 4.21 % of control sample

====

# PROCEDURE_SUMMARY: GC-head space: effect of enablers on the encapsulation of menthol and limonene combination by PVP
# Type: physicochemical
# CONDITION_LABEL: menthol + limonene with PVP; enabler 0.1%
GC-HS area (% of control sample) Menthol: recorded values

• CC(C)=O [Acetone] = 1.74 % of control sample
• Cc1cc(C(C)(C)C)c(O)c(C(C)(C)C)c1 [BHT, Butylated hydroxy toluene] = 30.48 % of control sample
• CC(=O)O [Acetic acid] = 0.82 % of control sample

Could you now consider this next compound?
Per the record, Oc1cc(Cl)ccc1Oc1ccc(Cl)cc1Cl [Triclosan] has GC-HS area (% of control sample) Menthol of 1.30 % of control sample

====

GC-HS area (% of control sample) Menthol: recorded values
# PROCEDURE_SUMMARY: GC-head space: effect of enablers on the encapsulation of menthol and limonene combination by PVP
# Type: physicochemical
# CONDITION_LABEL: menthol + limonene with PVP; enabler 0.05%

The cases that follow already have their GC-HS area (% of control sample) Menthol on record.
- CC(C)=O: 1.04 % of control sample
- Oc1cc(Cl)ccc1Oc1ccc(Cl)cc1Cl: 3.59 % of control sample
- CC(=O)O: 0.50 % of control sample

Could you now consider this next compound?
Per the record, Cc1cc(C(C)(C)C)c(O)c(C(C)(C)C)c1 [BHT, Butylated hydroxy toluene] has GC-HS area (% of control sample) Menthol of 23.30 % of control sample

====

# PROCEDURE_SUMMARY: GC-head space: effect of enablers on the encapsulation of menthol by PVP
# Format: physicochemical
# CONDITION_LABEL: enabler concentration 0.05%; with PVP
OUTCOME_MEASURE: GC-HS area Menthol
Enter the number alone.

Per the record, "CC(C)=O" has GC-HS area Menthol of 541

Per the record, "Oc1cc(Cl)ccc1Oc1ccc(Cl)cc1Cl" has GC-HS area Menthol of 4977

Per the record, "CC(=O)O" has GC-HS area Menthol of 708

Per the record, Cc1cc(C(C)(C)C)c(O)c(C(C)(C)C)c1 [BHT, Butylated hydroxy toluene] has GC-HS area Menthol of 10608

====

# PROCEDURE_SUMMARY: GC-head space: effect of enablers on the encapsulation of menthol and limonene combination by PVP
# Format: physicochemical
# CONDITION_LABEL: menthol + limonene with PVP; enabler 0.05%
GC-HS area Menthol: recorded values

The cases that follow already have their GC-HS area Menthol on record.
* CC(C)=O [Acetone] | 220
* Cc1cc(C(C)(C)C)c(O)c(C(C)(C)C)c1 [BHT, Butylated hydroxy toluene] | 4929
* Oc1cc(Cl)ccc1Oc1ccc(Cl)cc1Cl [Triclosan] | 759

Could you now consider this next compound?
Per the record, CC(=O)O [Acetic acid] has GC-HS area Menthol of 105

====

# PROCEDURE_SUMMARY: GC-head space: effect of enablers on the encapsulation of menthol and limonene combination by PVP
# Format: physicochemical
# CONDITION_LABEL: menthol + limonene with PVP; enabler 0.1%
GC-HS area Menthol: recorded values
Enter the number alone.

The cases that follow already have their GC-HS area Menthol on record.
- CC(C)=O: 369
- Cc1cc(C(C)(C)C)c(O)c(C(C)(C)C)c1 [BHT, Butylated hydroxy toluene]: 6449
- Oc1cc(Cl)ccc1Oc1ccc(Cl)cc1Cl: 274

Could you now consider this next compound?
Per the record, "CC(=O)O" has GC-HS area Menthol of 174
